In this section we review reported pKd values for a set of binders.
# testedOn: T1, gp140CN54 (subtype B'/C), gp140 envelope glycoprotein from the HIV-1 group M CRF07-B/C-clade isolate 97CN54 (HIV-1)
# T1 construct: also called CN54 gp140/420 (C); CN54 gp140 Env
# assayRemarks: SPR
pKd: −log10 of the molar value.

>  <binder>
L92E7 (VHH, Purified by IMAC; tags not written into the chain) VHH: EVQLVESGGGLVQPGGSLRLSCAASGNIVSIDAAGWFRQAPGKQREPVATILTGGATNYADSVKGRFTISRDNAKNTVYLQMSSLKPEDTAVYYCYAPMIYYGGRYSDYWGQGTQVTVSS

>  <pKd>
8.35

$$$$
>  <binder>
L91F10 (VHH, Purified by IMAC; tags not written into the chain) VHH: EVQLVESGGGLVQPGGSLTLSCVASGFTLDGYAIGWFRQAPGKEVESVSCITGRHGTIYYADSVMGRFTISRDNAKSTVYLQMNSLKPEDTAVYYCAADGFDTPCVAGTDWQYDYWGQGTQVTVSS

>  <pKd>
10.11

$$$$
>  <binder>
L91B5 (VHH, Purified by IMAC) VHH: EVQLVESGGGLVQPGGSLRLSCAASGATFDDYAIGWFRQAPGKEREGVSYIGCNDGATYYAGSVKGRFTISCDYAKNTVYLQMNSLKPEDTAVYYCAAAAQWATIRWIHEYDYNIWGQGTQVTVSS

>  <pKd>
11.90

$$$$
>  <binder>
L91H9 (VHH, Purified by IMAC; tags not written into the chain) VHH: EVQLVESGGGLVQAGGSLRLSCAVSGATFDDYAIGWFRQAPGKEREGVSYIGCNDGSTYYAGSVKGRFTISCDYAKNTVYLQMNSLKPEDTAVYYCAAAAQWATIRWIHEYDYDTWGQGTQVTVSS

>  <pKd>
10.20

$$$$
